pKi: −log10 of the molar value.
The molecules below each have a reported pKi tested on ATP-dependent translocase ABCB1 (Homo sapiens); the values come from various publications.
Outcome label depends on pKi relative to 6: at/above gives rule met, below gives rule not met.

Here are 3 molecules together with their reported answers.
[[record]]
molecular_string = "COC(=O)[C@H]1[C@H]2C[C@@H]3c4[nH]c5cc(OC)ccc5c4CCN3C[C@H]2C[C@@H](OC(=O)c2cc(OC)c(OC)c(OC)c2)[C@@H]1OC"
group_label = "rule not met"

[[record]]
molecular_string = "CC(=O)O[C@H]1[C@@H](OC(=O)c2ccccc2)C[C@](C)(O)[C@]23OC(C)(C)[C@H](C[C@H](OC(=O)c4ccoc4)[C@]12C)[C@H]3OC(=O)c1ccccc1"
group_label = "rule met"

[[record]]
molecular_string = "CC(=O)O[C@H]1CC[C@](C)(OC(=O)CNCC(C)C)[C@]23OC(C)(C)[C@H]([C@H](OC(=O)/C=C/c4ccccc4)[C@H](OC(=O)c4ccccc4)[C@]12C)[C@H]3OC(C)=O"
group_label = "rule met"


Has CC(=O)O[C@H]1CC[C@@H](C)[C@]23OC(C)(C)[C@H]([C@H](OC(=O)CCc4ccccc4)[C@H](OC(=O)c4ccccc4)[C@]12C)[C@H]3O a recorded pKi greater than or equal to 6?
rule met

Has COC(=O)CCCC(=O)O[C@@H]1[C@H]2[C@H](OC(=O)/C=C/c3ccccc3)[C@H](OC(=O)c3ccccc3)[C@]3(C)[C@@H](OC(C)=O)CC[C@](C)(O)[C@@]13OC2(C)C a recorded pKi greater than or equal to 6?
rule met

Has COc1ccc2cc1Oc1ccc(cc1)C[C@H]1c3cc(c(OC)cc3CCN1C)Oc1c(OC)c(OC)c(OC)c3c1[C@H](C2)N(C)CC3 a recorded pKi greater than or equal to 6?
rule met
